Cited source for all entries: patent US20220144960A1

- target.entity: T1, recombinant human CD30 extra cellular domain (ECD) protein (human, UniProt P28908 19-379)
- T1 construct: Bought from R&D systems; also called rhCD30; human CD30 ECD
- T1 sequence: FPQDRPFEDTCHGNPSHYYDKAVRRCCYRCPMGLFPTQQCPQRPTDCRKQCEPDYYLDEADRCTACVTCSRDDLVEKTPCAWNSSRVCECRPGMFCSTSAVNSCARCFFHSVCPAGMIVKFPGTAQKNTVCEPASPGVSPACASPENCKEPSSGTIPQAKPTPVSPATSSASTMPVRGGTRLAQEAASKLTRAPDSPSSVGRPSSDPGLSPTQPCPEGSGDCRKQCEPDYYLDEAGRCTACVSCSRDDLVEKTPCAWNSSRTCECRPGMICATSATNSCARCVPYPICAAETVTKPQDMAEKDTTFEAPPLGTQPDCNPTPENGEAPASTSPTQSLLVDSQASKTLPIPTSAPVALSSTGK
- method.description: SPR Biacore T200, His-tagged sdAb/Fab captured, 100.0 nM human CD30 as analyte, single curve
A collection of binders and their measured koff
Mention the unit after the number when you answer.

Worked cases, koff given:
| binder | property | result |
| --- | --- | --- |
| AS53750 sdAb (VHH, Camel sdAb) VHH: EVQLVESGGGLVQPGGSLRLSCTASGFTDDGPDMAWYRRAPGNECELVSIISADGRTYYTDSVKGRFTISRDNAKNTVFLYLNSLQPEDTAVYYCAPDPRRNCRGGDCCGNWGPGTQVTVSS | koff | 0.0069 s⁻¹ |
| AS48481 sdAb (VHH, Camel sdAb) VHH: EVQLVASGGGSVQAGETLRLSCTASGFTFADSAMGWYRKGPGNVCDLVAIIRTDGTTYYGDSAKGRFTISRDNAKSTLYLQMNSLKPEDTAVYFCAADRETSFIGGSWCVAKYWDQGTQVTVSS | koff | 0.0081 s⁻¹ |

Kindly consider the entry below.
Prompt line: koff lookup needed for AS57659 human Fab (Fab, V domains shown, Human Fab from a synthetic human Fab library, crude protein from E. coli with 6xHistidine tag) VH: EVQLVESGGGLVQPGGSLRLSCAASGFNIYSYYIHWVRQAPGKGLEWVASIYSSYSSTYYADSVKGRFTISADTSKNTAYLQMNSLRAEDTAVYYCARSWFSYPGLDYWGQGTLVTVSS VL: DIQMTQSPSSLSASVGDRVTITCRASQSVSSAVAWYQQKPGKAPKLLIYSASSLYSGVPSRFSGSRSGTDFTLTISSLQPEDFATYYCQQPYYLITFGQGTKVEIK , thanks.
Response line: 0.0022 s⁻¹
